The reported numbers originate from patent US20080044419A1.

Entries and their measured IC50 FGFR3 (FGF9), FDCP-FGFR3 proliferation assay performed with FGF9 follow.
molecular target: fibroblast growth factor receptor 3 (FGFR3), P22607; assay: cell-based or functional assay
API: value field is a number in nM; no unit string.

binder: PRO-054 Fab-dHLX (protein) VH: QVQLVQSGAEVKKPGASVKVSCKASGYTFTSYYMHWVRQAPGQGLEWMGWINPNSGGTNYAQKFQGRVTMTRDTSISTAYMELSSLRSEDTAVYYCARNMAYTNYQYVNMPHFDYWGQGTLVTVSS VL: DIELTQPPSVSVAPGQTARISCSGDALGDKYASWYQQKPGQAPVLVIYDDSDRPSGIPERFSGSNSGNTATLTISGTQAEDEADYYCQSYDYFKLVFGGGTKLTVLGQ
reported measurement: 45
--
binder: PRO-029 Fab-dHLX (protein) VH: QVQLVQSGAEVKKPGASVKVSCKASGYTFTSYYMHWVRQAPGQGLEWMGWINPNSGGTNYAQKFQGRVTMTRDTSISTAYMELSSLRSEDTAVYYCARTWQYSYFYYLDGGYYFDIWGQGTLVTVSS VL: DIVLTQSPATLSLSPGERATLSCRASQSVSSSYLAWYQQKPGQAPRLLIYGASSRATGVPARFSGSGSGTDFTLTISSLEPEDFATYYCQQTNNAPVTFGQGTKVEIKRT
reported measurement: 20

Now take the following binder into account.
Ask | Returns the measured IC50 FGFR3 (FGF9), FDCP-FGFR3 proliferation assay performed with FGF9 for the input binder. Input: PRO-055 Fab-dHLX (protein) VH: QVQLVQSGAEVKKPGASVKVSCKASGYTFTSYYMHWVRQAPGQGLEWMGWINPNSGGTNYAQKFQGRVTMTRDTSISTAYMELSSLRSEDTAVYYCARSMNSTMYWYLRRVLFDHWGQGTLVTVSS VL: DIALTQPASVSGSPGQSITISCTGTSSDVGGYNYVSWYQQHPGKAPKLMIYDVSNRPSGVSNRFSGSKSGNTASLTISGLQAEDEADYYCQSYDMYNYIVFGGGTKLTVLGQ
Reply | 34
